# ASSAY_REMARKS: amyloid nucleation score (Sup35N fusion, yeast selection) (log enrichment); library NNK3; higher = more nucleation; inactive = no reads after selection;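 also: zero at mode of non-aggregating sequences after 7 days selection at 30°C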
METRIC: amyloid nucleation score

VNFRIKAIVVSLRGYDWLSG; 0.287
LFTDPCCTIGMSFRV; 1.08
LCMQFNLVWRYDRRETINSE; 1.16
LIGCVLGSLFLRDIFIYCLM; 0.409
CGWMEGLCQLYENKEMKHWH; -0.261
IKPSMQIILWFGLERYSRAW; -0.308
DAFYIFWLDTSWFRWYAGTS; -0.131
IAEGFNTVGDLWNIGCCDSG; 0.154
CYFQYGNWFHLEGRNRSRSN; 1.17
MCAHVNVMRNSFYRRNAPNY; 0.603

* * *

# ASSAY_REMARKS: amyloid nucleation score (Sup35N fusion, yeast selection) (log enrichment); library NNK2; higher = more nucleation; inactive = no reads after selection
METRIC: amyloid nucleation score

IWPSRSGCVSVASVRI; 0.98
WEIYIGTLTIKWLFTMDRLV; -0.133
VEADVYDRDVTSWRMLYLYK; 0.174
FRVRRGLASGR; 1.28
RYSFSLMGFDSKGNKVGIMS; 3.65
TFIAMSQALMTVYIGALLQW; 3.57
LVHRCRYGLLTGLFEGQPVM; -1.12
VLVMLGGNSARVSCNWVM; 7.46
CHVYYVQFVLAD; -0.604
VKHIGGISARVYKNCAASAV; -0.74
MFASNLRKMSGGGVI; -0.694
CAPQSGKLGG; 1.01
FSKHNSYGTNINNLFFSLLH; 6.19
NWPMGGHVYKHRVSHSG; 0.095
YSFFIIVSALIGRWAS; -0.894
AQVDGSISSSSVVSVLKSEV; -0.262
CFDPGTNRCLPWAVGVGELG; 0.959
FVHERASGIVMLRGISVRGP; -0.327
TLGGSSTFRY; -0.152
MFPVPLVNIGMPDRWVKEKD; 0.469
ILSAFV; -0.16
TTYSRS; -1.26
GVRDVIQL; 2.05
WSNPTKLFHELAVQLNYTMP; 0.903
YLCYNALNDFD; -0.445
NIFEYPGYRRYVCCVGWV; 4.55
CYLYFIEYWFSEAPYFTSER; -0.959

* * *

# ASSAY_REMARKS: amyloid nucleation score (Sup35N fusion, yeast selection) (log enrichment); library NNK2; higher = more nucleation; inactive = no reads after selection
In this section, each of the sequences is paired with its reported amyloid nucleation score.
METRIC: amyloid nucleation score

VHCSVGNINKDVSCTVVRP; 0.892
EFRWGFRGVSYLKCTC; 1.2
LAAKFCCQLSFGSFCDCIFR; 7.82
VRKGHPYALELLSCYVGCQP; 1.18

* * *

# ASSAY_REMARKS: amyloid nucleation score (Sup35N fusion, yeast selection) (log enrichment); library NNK1; higher = more nucleation; inactive = no reads after selection
# cutoff -0.2 applies to amyloid nucleation score; >= gives 1, < gives 0

WGMWSGLLFGEFWCS; 0
VCNWVSLGVALHRALEQLGI; 0
CLGHLLLTESIPCSFCSYWM; 1
HVVAALWCARNFWGVLNVCC; 1
GFHSQG; 1
RCGSPSAHNSIYMR; 1
